- STUDY_SYSTEM: IRAK4 (Homo sapiens, UniProt Q9NWZ3)
- Construct: endogenous in cells; host or cells: THP-1 cells
- Sequence (Q9NWZ3 whole entry): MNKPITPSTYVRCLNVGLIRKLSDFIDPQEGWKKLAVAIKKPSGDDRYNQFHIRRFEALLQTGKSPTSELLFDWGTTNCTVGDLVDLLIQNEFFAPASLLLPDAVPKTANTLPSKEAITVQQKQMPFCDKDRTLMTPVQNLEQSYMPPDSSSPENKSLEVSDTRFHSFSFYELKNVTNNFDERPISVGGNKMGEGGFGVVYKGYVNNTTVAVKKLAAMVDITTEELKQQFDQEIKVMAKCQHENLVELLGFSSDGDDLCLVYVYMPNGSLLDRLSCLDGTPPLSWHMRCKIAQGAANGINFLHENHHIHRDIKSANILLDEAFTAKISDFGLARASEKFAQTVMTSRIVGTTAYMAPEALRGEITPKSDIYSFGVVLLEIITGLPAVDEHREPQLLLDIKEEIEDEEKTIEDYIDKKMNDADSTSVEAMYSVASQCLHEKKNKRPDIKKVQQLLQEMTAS
- ASSAY_PROTOCOL: ALE THP1 HTRF (Advanced Lipoxidation End Product THP1 Homogeneous Time Resolved Fluorescence)
- Assay type: cell-based
- CONDITION_INFO: THP1 cells
READOUT_NAME: ALE THP1 HTRF YMIN (%)
Just the number in %, nothing appended.

Known results for compounds:
COMPOUND | RESULT_NUMBER
C[C@@H]1CN(c2ccc(C3CCC(=O)NC3=O)cc2)CCN1CCC1CCC(NC(=O)c2cnc(-n3ncc4cc(C#N)cnc43)cc2NC2CCCC2)CC1 (some centres unmarked) | 8.5
N#Cc1cnc2c(cnn2-c2cc(NC3CCCC3)c(-c3cn([C@H]4CC[C@H](CCN5CCN(c6ccc(C7CCC(=O)NC7=O)cc6)CC5)CC4)nn3)cn2)c1 (some centres unmarked) | 14.6
C[C@@H]1CN(C(=O)C2CCC(NC(=O)c3cnc(-n4ncc5cc(C#N)cnc54)cc3NC3CCCC3)CC2)CCN1c1ccc2c(c1)C(=O)N(C1CCC(=O)NC1=O)C2=O (some centres unmarked) | 40.3
CC(C)(O)CNc1cc(-n2ncc3cc(C#N)cnc32)ncc1C(=O)N[C@H]1CC[C@H](CCN2CCN(c3ccc(C4CCC(=O)NC4=O)cc3)CC2)CC1 (some centres unmarked) | 11.0
C[C@H](C#N)Nc1cc(-n2ncc3cc(C#N)cnc32)ncc1C(=O)N[C@H]1CC[C@H](CCN2CCN(c3ccc(C4CCC(=O)NC4=O)cn3)[C@H](C)C2)CC1 (some centres unmarked) | 15.8
C[C@H]1CN(c2ccc3c(c2)C(=O)N(C2CCC(=O)NC2=O)C3=O)CCN1C(=O)C1CCC(NC(=O)c2cnc(Nc3ccc4ncsc4c3)cc2NC2CCCC2)CC1 (some centres unmarked) | 40.8
CCC1(Nc2cc(-n3ncc4cc(C#N)cnc43)ncc2C(=O)N[C@H]2CC[C@H](CCN3CCN(c4ccc(C5CCC(=O)NC5=O)cc4)CC3)CC2)CC1 (some centres unmarked) | 8.3
N#Cc1cnc2c(cnn2-c2cc(NC3CCCC3)c(C(=O)NC3CCC(CCN4CCC(Nc5cccc(C6CCC(=O)NC6=O)c5)CC4)CC3)cn2)c1 (centres unmarked) | 13.4

Query :: # input compound: N#Cc1cnc2c(cnn2-c2cc(NC3CCC(C(N)=O)CC3)c(C(=O)N[C@H]3CC[C@H](CCN4CCN(c5ccc(C6CCC(=O)NC6=O)cc5)CC4)CC3)cn2)c1 (some centres unmarked) ; wanted: its ALE THP1 HTRF YMIN
Result :: 7.7

Query :: # input compound: C[C@H](C#N)Nc1cc(-n2ncc3cc(C#N)c(N)nc32)ncc1C(=O)N[C@H]1CC[C@H](CCN2CCN(c3ccc(C4CCC(=O)NC4=O)cc3)[C@@H](C)C2)CC1 (some centres unmarked) ; wanted: its ALE THP1 HTRF YMIN
Result :: 7.5

Query :: # input compound: N#Cc1cnc2c(cnn2-c2cc(NCC3CCCO3)c(C(=O)N[C@H]3CC[C@H](CCN4CCN(c5ccc(C6CCC(=O)NC6=O)cc5)CC4)CC3)cn2)c1 (some centres unmarked) ; wanted: its ALE THP1 HTRF YMIN
Result :: 18.7

Query :: # input compound: C[C@H](C#N)Nc1cc(-n2ncc3cc(C#N)cnc32)ncc1-n1cc(C2CCC(CCN3CCN(c4ccc(C5CCC(=O)NC5=O)cc4)[C@@H](C)C3)CC2)nn1 (stereo in doubt) ; wanted: its ALE THP1 HTRF YMIN
Result :: 10.1

Query :: # input compound: N#Cc1cnc2c(cnn2-c2cc(NC3CC3)c(C(=O)NC3CCC(CCN4CCN(c5ccc(C6CCC(=O)NC6=O)cc5)CC4)CC3)cn2)c1 (centres unmarked) ; wanted: its ALE THP1 HTRF YMIN
Result :: 7.9

Query :: # input compound: CC(C)Nc1cc(-n2ncc3cc(C#N)cnc32)ncc1C(=O)NC1CCC(CCN2CCN(c3ccc(C4CCC(=O)NC4=O)cc3)CC2)CC1 (centres unmarked) ; wanted: its ALE THP1 HTRF YMIN
Result :: 7.5
